system: Escherichia coli TOP10; experiment: shrunken log2 fold change of peptide-encoding DNA abundance (4.5 h post-induction vs induction); higher = less antimicrobial activity (less host growth inhibition); details: time post-induction: 4.5 h; library: site-saturation at positions 5, 18, 19, 20
REPORTED PROPERTY: shrunken log2 fold change

RRIRDRPPRLPRPRPRPLATPRP    1.1

Record `RRIRYRPPRLPRPRPRPSGWPRP` : what is its shrunken log2 fold change with Escherichia coli TOP10?
-0.00312

Next up: `RRIRQRPPRLPRPRPRPAIAPRP`
0.0382

---

test system: Escherichia coli TOP10; assay: shrunken log2 fold change of peptide-encoding DNA abundance (4.5 h post-induction vs induction); higher = less antimicrobial activity (less host growth inhibition); conditions: time post-induction: 4.5 h; library: site-saturation at positions 5, 18, 19, 20
Quick rule for you: shrunken log2 fold change at -0.1 or higher means y, lower means n.

RRIRRRPPRLPRPRPRPHHHPRP    n
RRIRFRPPRLPRPRPRPNCYPRP    n
RRIRLRPPRLPRPRPRPHYTPRP    n

Reported shrunken log2 fold change reaches at least -0.1 for `RRIRGRPPRLPRPRPRPHSVPRP` ?
y

---

system: Escherichia coli TOP10; assay: shrunken log2 fold change of peptide-encoding DNA abundance (4.5 h post-induction vs induction); higher = less antimicrobial activity (less host growth inhibition); settings: time post-induction: 4.5 h; library: site-saturation at positions 5, 18, 19, 20
Quick rule for you: shrunken log2 fold change at 0.03 or higher means 1.0, lower means 0.0.

RRIRLRPPRLPRPRPRPIWDPRP    0.0
RRIRKRPPRLPRPRPRPVCEPRP    1.0
RRIRDRPPRLPRPRPRPCVSPRP    0.0
RRIRCRPPRLPRPRPRPWGHPRP    0.0

Consider the additional sequence presented here.
Reported shrunken log2 fold change reaches at least 0.03 for `RRIRRRPPRLPRPRPRPTWDPRP` ?
1.0

---

tested on: Escherichia coli TOP10; experiment: shrunken log2 fold change of peptide-encoding DNA abundance (4.5 h post-induction vs induction); higher = less antimicrobial activity (less host growth inhibition); conditions: time post-induction: 4.5 h; library: site-saturation at positions 5, 18, 19, 20
Here the recorded shrunken log2 fold change is given for each entry.
Answer field: number only, no words.

Example entries and their recorded answers appear below.
RRIRKRPPRLPRPRPRPMPTPRP    0.0822
RRIRSRPPRLPRPRPRPVMKPRP    -0.45
RRIRCRPPRLPRPRPRPPRDPRP    0.84

Item `RRIRDRPPRLPRPRPRPYWIPRP` has what recorded shrunken log2 fold change?
-0.296

Next up: `RRIRMRPPRLPRPRPRPNLVPRP`
0.288

Next up: `RRIRNRPPRLPRPRPRPCTDPRP`
0.233

Next up: `RRIRWRPPRLPRPRPRPHEEPRP`
0.0119

Next up: `RRIRARPPRLPRPRPRPDNHPRP`
-0.0167

---

test system: Escherichia coli TOP10; assay: shrunken log2 fold change of peptide-encoding DNA abundance (4.5 h post-induction vs induction); higher = less antimicrobial activity (less host growth inhibition); details: time post-induction: 4.5 h; library: site-saturation at positions 5, 18, 19, 20;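 further: peptides expressed intracellularly from a pBAD plasmid library in pooled LB shake-flask culture, induced with 0.3% L-arabinose, DNA abundance read by NGS, three biological replicates, DESeq2 with apeglm shrinkage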
Quick rule for you: shrunken log2 fold change at 0.01 or higher means 1.0, lower means 0.0.

RRIRQRPPRLPRPRPRPLPLPRP    0.0
RRIRVRPPRLPRPRPRPVWSPRP    1.0
RRIRKRPPRLPRPRPRPSTEPRP    1.0

Reported shrunken log2 fold change reaches at least 0.01 for `RRIRCRPPRLPRPRPRPHTAPRP` ?
0.0

Next up: `RRIRCRPPRLPRPRPRPGWHPRP`
1.0

Next up: `RRIRNRPPRLPRPRPRPNWMPRP`
0.0

Next up: `RRIRKRPPRLPRPRPRPSDSPRP`
0.0

Next up: `RRIRSRPPRLPRPRPRPTWSPRP`
0.0

Next up: `RRIRFRPPRLPRPRPRPLCMPRP`
0.0

Next up: `RRIRSRPPRLPRPRPRPPGDPRP`
1.0

Next up: `RRIRMRPPRLPRPRPRPKLLPRP`
1.0

Next up: `RRIRKRPPRLPRPRPRPQGDPRP`
1.0

Next up: `RRIRQRPPRLPRPRPRPYNTPRP`
0.0

Next up: `RRIRDRPPRLPRPRPRPKSHPRP`
0.0
